system: IGROV1 ovarian; experiment: NCI tumour cell line growth inhibition, 48 h
endpoint.label: TGI

Example results:
1. CC1(C)CC(=O)C(C(=O)C(=O)NC2=C(Cl)C(=O)c3ccccc3C2=O)C(=O)C1: > 100 µM
2. O=NN(CCCl)C(=O)NC1CCC(C(=O)O)CC1 (centres undefined): > 100 µM
3. CO[C@]12CC(=O)C3(C(C[C@H]4CC5CCC6=CC(=O)CC[C@]6(OC(C)=O)C5C[C@@]43C)C1)C1C[C@H]3[C@@H]4CCC5=CC(=O)CC[C@]5(OC(C)=O)[C@H]4CC[C@]3(C)C12 (some centres undefined): > 100 µM

Now take the following compound into account.
Answer with reported TGI of [N-]=[N+]=NC1=CC(=O)c2cccc3cccc1c23 51.8 µM

----------
system: DU-145 prostate; test: NCI tumour cell line growth inhibition, 48 h
endpoint.label: GI50

Example results:
1. Cc1ccc(NS(=O)(=O)c2ccc(-c3cnc(C4CC4)o3)cc2)cc1C: 0.972 µM
2. COc1ccc2c(c1)CC[C@@H]1[C@@H]2CC[C@]2(C)C(c3ccsc3)=C(/C=C/C(=O)c3ccccc3)C[C@@H]12: > 100 µM
3. C/C=C(/C(=C/C)c1ccc(O)cc1)c1ccc(O)cc1: 3.35 µM
4. O=C1c2[nH]cc(CN3CCN(CCO)CC3)c2C(=O)c2c1c(O)c1ccccc1c2O: 4.53 µM
5. COc1ccc(/C=N/Nc2nc(N)nc(N3CCCC3)c2C#N)cc1: 11.8 µM
6. C=C1C(=O)O[C@H]2[C@H]1CC/C(COC(=O)NCc1ccc(Cn3c(=O)sn(CCI)c3=O)cc1)=C\CC[C@@]1(C)O[C@@H]21: 1.82 µM
7. O=[N+]([O-])c1cc([N+](=O)[O-])c(N2CCCC2)cc1NN=C(c1ccc(O)cc1)c1ccc(O)cc1: 7.43 µM
8. NS(=O)(=O)N(c1cc(C(F)(F)F)cc(C(F)(F)F)c1)C1CCN(Cc2ccc(C(F)(F)F)cc2)CC1: 7.87 µM

Now take the following molecule into account.
Answer with reported GI50 of C=CCOC1=CC(=O)c2ccccc2C1=O 2.11 µM

----------
# TGI annotations
system: SF-539 CNS; experiment: NCI tumour cell line growth inhibition, 48 h

Example results:
1) CC1(C)CC(=O)C(C(=O)C(=O)NC2=C(Cl)C(=O)c3ccccc3C2=O)C(=O)C1: > 100 µM
2) O=[N+]([O-])c1cc([N+](=O)[O-])c(N2CCCC2)cc1NN=C(c1ccc(O)cc1)c1ccc(O)cc1: 24.8 µM
3) Cc1ccc(Nc2nc3c(s2)C(=O)c2ccccc2C3=O)cc1: 17.7 µM
4) Cc1c(C(=O)C(=O)c2ccccc2)c(C)c(C(=O)C(=O)c2ccccc2)c(C)c1C(=O)C(=O)c1ccccc1: > 100 µM
5) COc1cc(/C=C/c2cccnc2)cc(OC)c1OC: > 100 µM
6) Cc1[nH]c2ncn(Nc3ccccc3)c(=N)c2c1Cc1ccccc1: > 100 µM
7) CCOC(=O)Cn1c(=O)n(C)c(=O)c2[nH]cnc21: > 100 µM
8) Cc1ccc(NS(=O)(=O)c2ccc(-c3cnc(C4CC4)o3)cc2)cc1C: 1.77 µM
9) CC[C@@]1(O)C(=O)OCc2c1cc1n(c2=O)Cc2cc3c([N+](=O)[O-])c(OC)ccc3nc2-1: 0.121 µM
10) COc1ccc(NC(=O)C(=O)NO)c(OC)c1: 36.3 µM

Answer with reported TGI of Cc1cc(C)nc(NS(=O)(=O)c2ccc(NC(=O)c3cccc4c(Nc5ccc(S(=O)(=O)N=C(N)N)cc5)c5ccc(Cl)cc5nc34)cc2)n1 73.7 µM

Answer with reported TGI of C=C1[C@@H](OC(C)=O)[C@H]2[C@@H](OC(C)=O)[C@@](C)(OC(C)=O)C[C@]2(OC(C)=O)C(=O)[C@@H](C)/C=C/C(C)(C)C(=O)C[C@H]1OC(C)=O > 100 µM

Answer with reported TGI of CC1=C(C#N)C2C(=C(C)N1)C(N)=Nc1ccccc12 (configuration not stated) > 100 µM

Answer with reported TGI of C=CCOC1=CC(=O)c2ccccc2C1=O 6.01 µM

Answer with reported TGI of Cc1cc(O)c(C=NC(=S)C(N)=S)c(=O)o1 > 100 µM

Answer with reported TGI of CCN(CC)CCCN1C(=O)c2c(c(C)c3c(oc4ccc(O)cc43)c2C)C1=O 3.11 µM

Answer with reported TGI of O=NN(CCCl)C(=O)NC1CCC(C(=O)O)CC1 (configuration not stated) > 100 µM

Data provenance: PubChem BioAssay (NCI)
